- System: SF-539 CNS
- Assay Comment: NCI tumour cell line growth inhibition, 48 h
Entries and their TGI values follow.

- COc1cc(C2c3cc4c(cc3OC(NCCO)C2C)OCO4)cc(OC)c1OC (stereo unspecified): 0.635 µM
- CN1C(=O)C2(c3ccccc31)N(c1ccc(Cl)cc1)C(=O)C2(c1ccccc1)c1ccccc1 (stereo unspecified): > 100 µM
- COC(=O)CSSCc1ccc([N+](=O)[O-])cc1: 32.7 µM

Query: Field request: TGI | item: Cc1ccc2c(c1)C(=O)C(C1OC(=O)c3ccccc31)C2 (stereo unspecified)
Result: > 100 µM

Query: Consider next the compound "Cc1ccc(NC(=O)C(=O)CC(=O)c2sc(Nc3c(C)cccc3C)nc2C)cc1C" in the same way.
Result: > 100 µM

Query: Consider next the compound "O=c1cnn(CCOCP(=O)(O)O)c(=O)[nH]1" in the same way.
Result: > 100 µM
